# Assay method text: Pharmacokinetics after repeated administration (Q7D×3) to rats
# Type: in vivo
# Assay context: rat, plasma, iv; TH302 in rats, 50 mg/kg Q7D×3, Day 15
Observation type: clearance (mL/min/kg)
Answer with a number only, understood to be in mL/min/kg.

Query string: # get_value(readout='clearance', item= Cn1c(COP(=O)(NCCBr)NCCBr)cnc1[N+](=O)[O-] )
Result string: 197

----------
# Assay method text: Pharmacokinetics of TH302 in Beagle Dogs (Table 6)
# Assay type: in vivo
# Assay context: female, dog, plasma, intravenous, Females, 4 mg/kg
Observation type: Cmax (ng/mL)
Write the answer as a number in ng/mL, unit excluded.

Query string: Find the recorded Cmax belonging to Cn1c(COP(=O)(NCCBr)NCCBr)cnc1[N+](=O)[O-] [TH302] and report it.
Result string: 3830

----------
# Assay method text: Pharmacokinetics in cynomolgus monkeys (20 mg/kg i.v.)
# Type: in vivo
# Assay context: cynomolgus monkey, plasma, iv, monkeys, read-out: Plasma t1/2
Observation type: half-life (min)
Write the value in min as a bare number.

Query string: Look up half-life for this molecule: Cn1c(COP(=O)(NCCBr)NCCBr)cnc1[N+](=O)[O-]
Result string: 24.9

----------
# Assay method text: Pharmacokinetics of TH302 in Beagle Dogs (Table 6)
# Assay type: in vivo
# Assay context: male, dog, plasma, intravenous, Males, 8 mg/kg
Observation type: clearance (mL/min/kg)
Give the number; mL/min/kg is assumed, so skip it.

Query string: May I ask what clearance has been recorded for Cn1c(COP(=O)(NCCBr)NCCBr)cnc1[N+](=O)[O-] ?
Result string: 37.2

----------
# Assay method text: Pharmacokinetics after repeated administration (Q7D×3) to dogs
# Type: in vivo
# Assay context: dog, plasma, intravenous; TH302 in dogs, 16 mg/kg Q7D×3, Day 15; read-out: Cmax
Observation type: Cmax

Query string: Return reported Cmax; argument: Cn1c(COP(=O)(NCCBr)NCCBr)cnc1[N+](=O)[O-] [TH302]
Result string: 7100 ng/mL

----------
# Assay method text: Pharmacokinetics in Sprague-Dawley rats (single dose i.v. and p.o.)
# Format: in vivo, male Sprague-Dawley rats
# Assay context: male, Sprague-Dawley, rat, plasma, iv, 20 mg/kg, rats, 20 mg/kg i.v. bolus, MEAN; read-out: AUC(0-t)
Observation type: AUC(0-t) (ng·h/mL)
// units = ng·h/mL; emit number, no label

Query string: Reported AUC(0-t) for Cn1c(COP(=O)(NCCBr)NCCBr)cnc1[N+](=O)[O-] [TH302] : what is it?
Result string: 3270

----------
# Assay method text: Pharmacokinetics of TH302 in Beagle Dogs (Table 6)
# Type: in vivo
# Assay context: male, dog, plasma, intravenous, Males, 16 mg/kg, read-out: T½ (converted)
Observation type: half-life (min)
Give the quantity in min, number only.

Query string: What does the data say about its half-life? Entry: Cn1c(COP(=O)(NCCBr)NCCBr)cnc1[N+](=O)[O-] [TH302]
Result string: 15.5

----------
# Assay method text: Pharmacokinetics in Sprague-Dawley rats (single dose i.v. and p.o.)
# Assay type: in vivo, male Sprague-Dawley rats
# Assay context: male, Sprague-Dawley, rat, plasma, iv; rats, 5 mg/kg i.v. bolus, individual animals
Observation type: Tmax (min)
Express your answer in min, writing the number without its unit.

Query string: # lookup: Tmax of Cn1c(COP(=O)(NCCBr)NCCBr)cnc1[N+](=O)[O-]
Result string: 1.8

----------
# Assay method text: Pharmacokinetics of TH302 in Beagle Dogs (Table 6)
# Assay type: in vivo
# Assay context: male, dog, plasma, intravenous, Males, 4 mg/kg
Observation type: Tmax (min)
Write the number in min without appending the unit.

Query string: Sample Cn1c(COP(=O)(NCCBr)NCCBr)cnc1[N+](=O)[O-] — what was its Tmax?
Result string: 37

----------
# Assay method text: Pharmacokinetics in Sprague-Dawley rats (single dose i.v. and p.o.)
# Assay type: in vivo, male Sprague-Dawley rats
# Assay context: male, Sprague-Dawley, rat, in vivo, iv, 20 mg/kg, rats, 20 mg/kg i.v. bolus, individual animals; read-out: CL (converted)
Observation type: clearance (mL/min/kg)
The figure you give is taken to be in mL/min/kg; do not add the unit.

Query string: # input compound: Cn1c(COP(=O)(NCCBr)NCCBr)cnc1[N+](=O)[O-] [TH302] ; wanted: its clearance
Result string: 98.5

----------
# Assay method text: Pharmacokinetics in Sprague-Dawley rats (single dose i.v. and p.o.)
# Type: in vivo, male Sprague-Dawley rats
# Assay context: male, Sprague-Dawley, rat, in vivo, iv, 5 mg/kg, rats, 5 mg/kg i.v. bolus, MEAN; read-out: Vss
Observation type: Vd (L/kg)
Give your result in L/kg as a bare value.

Query string: Would you mind telling me what Vd value was observed for Cn1c(COP(=O)(NCCBr)NCCBr)cnc1[N+](=O)[O-] ?
Result string: 5.09

----------
# Assay method text: Pharmacokinetics after repeated administration (Q7D×3) to rats
# Assay type: in vivo
# Assay context: rat, plasma, intravenous; rats, 25 mg/kg dose of TH302; read-out: drug exposure, AUC of TH302
Observation type: AUC at 15 day

Query string: Look at this compound and give its reported AUC at 15 day. Cn1c(COP(=O)(NCCBr)NCCBr)cnc1[N+](=O)[O-]
Result string: ~2110 ng·h/mL

----------
# Assay method text: Pharmacokinetics of TH302 in Beagle Dogs (Table 6)
# Assay type: in vivo
# Assay context: female, dog, plasma, intravenous, Females, 16 mg/kg
Observation type: clearance

Query string: Quick check: clearance of Cn1c(COP(=O)(NCCBr)NCCBr)cnc1[N+](=O)[O-] ?
Result string: 34.8 mL/min/kg

----------
# Assay method text: Pharmacokinetics in cynomolgus monkeys (20 mg/kg i.v.)
# Type: in vivo
# Assay context: cynomolgus monkey, plasma, iv, 20 mg/kg, cynomolgus monkeys, Mean (N=3)
Observation type: AUC(0-t)
The reply should consist of the numeric value with the unit placed after it.

Query string: What value of AUC(0-t) has been recorded for this entry: Cn1c(COP(=O)(NCCBr)NCCBr)cnc1[N+](=O)[O-]
Result string: 3140 ng·h/mL

----------
# Assay method text: Pharmacokinetics in nude mice
# Format: in vivo
# Assay context: female, mouse, plasma, iv, 50 mg/kg i.v.
Observation type: half-life
Reply with the number, then its unit.

Query string: Suppose we examine the compound Cn1c(COP(=O)(NCCBr)NCCBr)cnc1[N+](=O)[O-] ; what half-life value has been reported?
Result string: 8.2 min

----------
# Assay method text: Pharmacokinetics of TH302 in Beagle Dogs (Table 6)
# Type: in vivo
# Assay context: male, dog, plasma, intravenous, Males, 32 mg/kg, read-out: Vss
Observation type: Vd (L/kg)
Number only, in L/kg; omit the unit.

Query string: Suppose we examine the compound Cn1c(COP(=O)(NCCBr)NCCBr)cnc1[N+](=O)[O-] ; what Vd value has been reported?
Result string: 1.12

----------
# Assay method text: Pharmacokinetics after repeated administration (Q7D×3) to rats
# Format: in vivo
# Assay context: rat, plasma, iv; TH302 in rats, 50 mg/kg Q7D×3, Day 15; read-out: Vss
Observation type: Vd (L/kg)
Numeric answer only, unit L/kg assumed.

Query string: Reported Vd, compound Cn1c(COP(=O)(NCCBr)NCCBr)cnc1[N+](=O)[O-] : ____
Result string: 5.84

----------
# Assay method text: Pharmacokinetics after repeated administration (Q7D×3) to rats
# Assay type: in vivo
# Assay context: rat, plasma, iv; TH302 in rats, 25 mg/kg Q7D×3, Day 15
Observation type: clearance (mL/min/kg)
Answer format: numeric, mL/min/kg implied, no suffix.

Query string: Reported clearance, compound Cn1c(COP(=O)(NCCBr)NCCBr)cnc1[N+](=O)[O-] : ____
Result string: 275

----------
# Assay method text: Pharmacokinetics in cynomolgus monkeys (20 mg/kg i.v.)
# Type: in vivo
# Assay context: cynomolgus monkey, plasma, iv, cynomolgus monkeys, individual animals
# Procedure: Pharmacokinetic studies were performed in male CD-1 (50 mg/kg i.p. or orally (p.o.)) or female nude mice (50 mg/kg i.v. or i.p.), male Sprague-Dawley rats (1, 5, 20 and 50 mg/kg i.v. and 100 mg/kg, p.o.), beagle dogs (20 mg/kg, i.v.) and cynomologus monkeys (20 mg/kg i.v.). Plasma TH302 concentrations were analyzed using a LC/MS method and the pharmacokinetic parameters computed using a noncompartmental method. Interspecies scaling was performed according to standard methods. […]
Observation type: Tmax (min)
Respond with the bare value in min.

Query string: Report Tmax for Cn1c(COP(=O)(NCCBr)NCCBr)cnc1[N+](=O)[O-] [TH302] please.
Result string: 1.98

----------
# Assay method text: Pharmacokinetics after repeated administration (Q7D×3) to dogs
# Format: in vivo
# Assay context: dog, in vivo; TH302 in dogs, 16 mg/kg Q7D×3, Day 15
Observation type: AUC (ng·h/mL)
Provide only the numeric value, understood in ng·h/mL.

Query string: Name the recorded AUC for Cn1c(COP(=O)(NCCBr)NCCBr)cnc1[N+](=O)[O-] [TH302] .
Result string: 4260
